Taken from paper PMC10114980.

# Test system: CAKI-1
# ASSAY_PROTOCOL: NCI single dose screen, CAKI-1
# Format: cell-based
# TEST_PARAMETERS: Homo sapiens; CAKI-1, renal cancer; single dose 10^−5 M; read-out: growth inhibition percentage
ASSAY_READOUT: inhibition at 10 µM

Take a look at these entries with their results.
COMPOUND	STUDY_TARGET	inhibition at 10 µM
CN1c2ccccc2C(=O)N(NC(=O)Nc2ccc(F)cc2)C1c1ccc([N+](=O)[O-])cc1 (stereo not shown)	CAKI-1	18.4%
COc1ccc(C2N(NC(=O)Nc3ccc(F)cc3)C(=O)c3ccccc3N2C)cc1 (stereo not shown)	CAKI-1	< 10%
CN1c2ccccc2C(=O)N(NC(=O)Nc2ccc(F)cc2)C1c1ccccc1 (stereo not shown)	CAKI-1	< 10%

I would be grateful if you could provide inhibition at 10 µM for each of the following entries.
1. CN1c2ccccc2C(=O)N(NC(=O)Nc2ccccc2)C1c1ccc(F)cc1 (stereo not shown)
2. CC1N(NC(=O)Nc2ccc(F)cc2)C(=O)c2ccccc2N1C (stereo not shown)
3. CN1c2ccccc2C(=O)N(NC(=O)Nc2ccccc2)C1c1ccc([N+](=O)[O-])cc1 (stereo not shown)
4. CN1CN(NC(=O)Nc2ccccc2)C(=O)c2ccccc21
5. CN1c2ccccc2C(=O)N(NC(=O)Nc2ccc(F)cc2)C1c1ccc(F)cc1 (stereo not shown)
6. CN1c2ccccc2C(=O)N(NC(=O)Nc2ccccc2)C1c1ccccc1 (stereo not shown)
7. COc1ccc(NC(=O)NN2C(=O)c3ccccc3N(C)C2c2ccc(OC)cc2)cc1 (stereo not shown)

13%
< 10%
< 10%
< 10%
25.1%
< 10%
< 10%

* * *

# STUDY_TARGET: double mutant EGFR^L858R/T790M (Homo sapiens, UniProt P00533, L858R/T790M)
# Construct: purchased AssayQuant Technologies, Inc. (Marlboro, MA, USA)
# Sequence (P00533 25-1210 T790M/L858R): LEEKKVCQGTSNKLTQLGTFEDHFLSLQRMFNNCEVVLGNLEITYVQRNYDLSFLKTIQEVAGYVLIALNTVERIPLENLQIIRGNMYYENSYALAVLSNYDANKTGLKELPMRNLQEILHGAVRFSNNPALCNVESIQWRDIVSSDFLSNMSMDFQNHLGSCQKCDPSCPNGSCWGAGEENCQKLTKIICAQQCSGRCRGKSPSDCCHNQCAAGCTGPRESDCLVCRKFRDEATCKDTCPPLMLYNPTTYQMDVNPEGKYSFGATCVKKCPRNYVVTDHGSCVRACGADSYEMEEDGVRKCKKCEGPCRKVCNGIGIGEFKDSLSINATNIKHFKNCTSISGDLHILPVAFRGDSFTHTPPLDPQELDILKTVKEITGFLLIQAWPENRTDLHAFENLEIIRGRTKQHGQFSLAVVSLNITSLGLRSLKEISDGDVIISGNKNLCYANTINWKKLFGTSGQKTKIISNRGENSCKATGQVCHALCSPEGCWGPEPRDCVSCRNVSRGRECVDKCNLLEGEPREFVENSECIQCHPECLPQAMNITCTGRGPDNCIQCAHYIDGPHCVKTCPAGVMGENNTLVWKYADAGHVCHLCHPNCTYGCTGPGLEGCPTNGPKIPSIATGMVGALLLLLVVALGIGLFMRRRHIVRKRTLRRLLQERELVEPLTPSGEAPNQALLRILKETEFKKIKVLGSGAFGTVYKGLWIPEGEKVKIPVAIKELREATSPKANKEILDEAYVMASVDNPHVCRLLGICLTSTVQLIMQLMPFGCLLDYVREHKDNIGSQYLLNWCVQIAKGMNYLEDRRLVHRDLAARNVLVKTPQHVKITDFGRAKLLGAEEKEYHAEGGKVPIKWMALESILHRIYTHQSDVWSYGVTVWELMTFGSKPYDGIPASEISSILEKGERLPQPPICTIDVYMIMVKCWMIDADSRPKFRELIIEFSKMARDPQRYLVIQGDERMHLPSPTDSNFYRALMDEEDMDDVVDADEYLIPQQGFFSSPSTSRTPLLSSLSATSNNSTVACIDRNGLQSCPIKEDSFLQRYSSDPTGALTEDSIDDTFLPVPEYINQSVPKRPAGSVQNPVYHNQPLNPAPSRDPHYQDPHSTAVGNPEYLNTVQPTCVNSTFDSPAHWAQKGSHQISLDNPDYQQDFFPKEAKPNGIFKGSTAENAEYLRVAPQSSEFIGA
# ASSAY_PROTOCOL: In vitro EGFR inhibition assay, double mutant
# Format: biochemical
# TEST_PARAMETERS: ratio of the IC50 values EGFR^WT/EGFR^L858R/T790M
ASSAY_READOUT: Selectivity (SI)

Take a look at these entries with their results.
MOLECULE	Selectivity (SI)
CN1c2ccccc2C(=O)N(NC(=O)Nc2ccc(F)cc2)C1c1ccc(F)cc1 (stereo not drawn)	>7.4
CN1c2ccccc2C(=O)N(NC(=O)Nc2ccccc2)C1c1ccccc1 (stereo not drawn)	>12.6
CC1N(NC(=O)Nc2ccc(F)cc2)C(=O)c2ccccc2N1C (stereo not drawn)	>5.8
CN1c2ccccc2C(=O)N(NC(=O)Nc2ccccc2)C1c1ccc(F)cc1 (stereo not drawn)	>17.9
CN1c2ccccc2C(=O)N(NC(=O)Nc2ccccc2)C1c1ccc([N+](=O)[O-])cc1 (stereo not drawn)	8.9
CN1CN(NC(=O)Nc2ccccc2)C(=O)c2ccccc21	>217
CN1c2ccccc2C(=O)N(NC(=O)Nc2ccc(F)cc2)C1c1ccc([N+](=O)[O-])cc1 (stereo not drawn)	1.5
COc1ccc(NC(=O)NN2C(=O)c3ccccc3N(C)C2c2ccc(OC)cc2)cc1 (stereo not drawn)	>24.8

// below: Selectivity (SI) requested for another molecule
Which measured Selectivity (SI) belongs to COc1ccc(C2N(NC(=O)Nc3ccc(F)cc3)C(=O)c3ccccc3N2C)cc1 (stereo not drawn) , tested on double mutant EGFR^L858R/T790M (Homo sapiens, UniProt P00533, L858R/T790M)?
>18.5

* * *

# Test system: HS 578T
# ASSAY_PROTOCOL: NCI single dose screen, HS 578T
# Format: cell-based
# TEST_PARAMETERS: Homo sapiens, breast cancer, single dose 10^−5 M, read-out: growth inhibition percentage
Consider the following compounds; for each one, report its inhibition at 10 µM.

COMPOUND	inhibition at 10 µM
CN1c2ccccc2C(=O)N(NC(=O)Nc2ccc(F)cc2)C1c1ccccc1 (stereo not shown) [Compound 6m]	< 10%

I would be grateful if you could provide inhibition at 10 µM for each of the following entries.
1. CN1c2ccccc2C(=O)N(NC(=O)Nc2ccccc2)C1c1ccccc1 (stereo not shown) [Compound 6c]
2. CN1CN(NC(=O)Nc2ccccc2)C(=O)c2ccccc21 [Compound 6a]
3. COc1ccc(NC(=O)NN2C(=O)c3ccccc3N(C)C2c2ccc(OC)cc2)cc1 (stereo not shown) [Compound 6j]
4. CN1c2ccccc2C(=O)N(NC(=O)Nc2ccccc2)C1c1ccc(F)cc1 (stereo not shown) [Compound 6d]
5. CN1c2ccccc2C(=O)N(NC(=O)Nc2ccc(F)cc2)C1c1ccc(F)cc1 (stereo not shown) [Compound 6n]
6. CN1c2ccccc2C(=O)N(NC(=O)Nc2ccc(F)cc2)C1c1ccc([N+](=O)[O-])cc1 (stereo not shown) [Compound 6o]
7. CC1N(NC(=O)Nc2ccc(F)cc2)C(=O)c2ccccc2N1C (stereo not shown) [Compound 6l]

["56.8%", "< 10%", "< 10%", "< 10%", "19.7%", "< 10%", "< 10%"]

I would be grateful if you could provide inhibition at 10 µM for each of the following entries.
1. CN1c2ccccc2C(=O)N(NC(=O)Nc2ccccc2)C1c1ccc([N+](=O)[O-])cc1 (stereo not shown) [Compound 6e]
2. COc1ccc(C2N(NC(=O)Nc3ccc(F)cc3)C(=O)c3ccccc3N2C)cc1 (stereo not shown) [Compound 6p]

< 10%
< 10%

* * *

Consider the following compounds; for each one, report its TNF-α concentration.
# Tested on: LPS-induced TNF-α production in RAW 264.7 cells
# ASSAY_PROTOCOL: TNF-α production in LPS-activated RAW 264.7 cells (ELISA)
# Assay type: cell-based
# TEST_PARAMETERS: LPS-activated RAW 264.7 cells treated with 25 µM of the compound
Numbers only, in pg/mL.

Take a look at these entries with their results.
COMPOUND	TNF-α concentration [pg/mL]
CN1c2ccccc2C(=O)N(NC(=O)Nc2ccccc2)C1c1ccccc1 (centres unmarked)	955.00
CN1c2ccccc2C(=O)N(NC(=O)Nc2ccc(F)cc2)C1c1ccc(F)cc1 (centres unmarked)	1981.00
CN1c2ccccc2C(=O)N(NC(=O)Nc2ccccc2)C1c1ccc(F)cc1 (centres unmarked)	1222.00
COc1ccc(C2N(NC(=O)Nc3ccc(F)cc3)C(=O)c3ccccc3N2C)cc1 (centres unmarked)	1549.00
CN1CN(NC(=O)Nc2ccccc2)C(=O)c2ccccc21	1157.00

I would be grateful if you could provide TNF-α concentration for each of the following entries.
1. CN1c2ccccc2C(=O)N(NC(=O)Nc2ccc(F)cc2)C1c1ccccc1 (centres unmarked)
2. CN1c2ccccc2C(=O)N(NC(=O)Nc2ccccc2)C1c1ccc([N+](=O)[O-])cc1 (centres unmarked)
3. CC1N(NC(=O)Nc2ccc(F)cc2)C(=O)c2ccccc2N1C (centres unmarked)

[935.60, 1929.00, 1250.00]

* * *

# System: SK-MEL-2
# ASSAY_PROTOCOL: NCI single dose screen, SK-MEL-2
# Format: cell-based
# TEST_PARAMETERS: Homo sapiens; SK-MEL-2, melanoma; single dose 10^−5 M; read-out: growth inhibition percentage
ASSAY_READOUT: inhibition at 10 µM

Take a look at these entries with their results.
COMPOUND	inhibition at 10 µM
COc1ccc(NC(=O)NN2C(=O)c3ccccc3N(C)C2c2ccc(OC)cc2)cc1 (stereo not shown)	< 10%
CN1c2ccccc2C(=O)N(NC(=O)Nc2ccc(F)cc2)C1c1ccccc1 (stereo not shown)	< 10%
CN1c2ccccc2C(=O)N(NC(=O)Nc2ccc(F)cc2)C1c1ccc([N+](=O)[O-])cc1 (stereo not shown)	< 10%

Look up inhibition at 10 µM for this compound: CN1c2ccccc2C(=O)N(NC(=O)Nc2ccc(F)cc2)C1c1ccc(F)cc1 (stereo not shown)
12.5%

* * *

# ASSAY_PROTOCOL: Cell viability assay against normal cell line (MTS)
# Format: cell-based
# TEST_PARAMETERS: mouse, RAW 264.7 cells, concentrations up to 50 μM, read-out: cell viability percentage of the control values
Consider the following compounds; for each one, report its viability.

COMPOUND	viability
CC1N(NC(=O)Nc2ccc(F)cc2)C(=O)c2ccccc2N1C (stereo not shown)	> 90%
COc1ccc(C2N(NC(=O)Nc3ccc(F)cc3)C(=O)c3ccccc3N2C)cc1 (stereo not shown)	> 90%

I would be grateful if you could provide viability for each of the following entries.
1. CN1c2ccccc2C(=O)N(NC(=O)Nc2ccc(F)cc2)C1c1ccc(F)cc1 (stereo not shown)
2. CN1c2ccccc2C(=O)N(NC(=O)Nc2ccccc2)C1c1ccc(F)cc1 (stereo not shown)
3. CN1c2ccccc2C(=O)N(NC(=O)Nc2ccc(F)cc2)C1c1ccc([N+](=O)[O-])cc1 (stereo not shown)

1. > 90%
2. > 90%
3. > 90%

I would be grateful if you could provide viability for each of the following entries.
1. COc1ccc(NC(=O)NN2C(=O)c3ccccc3N(C)C2c2ccc(OC)cc2)cc1 (stereo not shown)
2. CN1c2ccccc2C(=O)N(NC(=O)Nc2ccccc2)C1c1ccc([N+](=O)[O-])cc1 (stereo not shown)
3. CN1CN(NC(=O)Nc2ccccc2)C(=O)c2ccccc21
4. CN1c2ccccc2C(=O)N(NC(=O)Nc2ccccc2)C1c1ccccc1 (stereo not shown)
5. CN1c2ccccc2C(=O)N(NC(=O)Nc2ccc(F)cc2)C1c1ccccc1 (stereo not shown)

["> 90%", "> 90%", "> 90%", "> 90%", "> 90%"]
